- assayText: yeast growth modulation, basal conditions, primary screen, YJM789 clinical isolate, OD600, 24 h (AID 1089);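 further: growth of clinical yeast isolate S. cerevisiae YJM 789 seeded 1000 cells per well; test concentration not given here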
- conditionInfo: S. cerevisiae YJM789 growth, higher = more signal, called active from +8 up or from −8 down
reportedMetric: z-score
Write no unit; give the number alone.

Some solved cases for reference:
**Q:** Reported z-score for CC(C)C[C@@H]1NC(=O)[C@@H]2C[C@H](C(=O)NCCCCCC[N+](C)(C)C)[C@H](c3cccc(OCCO)c3)N2C1=O : what is it?
**A:** -0.632

**Q:** Then COCCOC(=O)N1C(=O)[C@@]2(c3cc(C#CC4(O)CCCCCC4)ccc31)[C@H](C(=O)N1CCN(c3ncccn3)CC1)[C@H]1C(=O)O[C@H](c3ccccc3)[C@H](c3ccccc3)N1[C@@H]2c1ccccc1OCCO ?
**A:** 2.56

**Q:** Then what about the molecule COc1ccc(C(O)C2C=CC3C(=O)N(c4ccccc4)C(=O)C3N2Nc2ccc(C(C)C)cc2)c2ccccc12 (stereo unspecified) ?
**A:** 0.254

Next:
**Q:** // z-score lookup, key: Cc1ccc(S[C@]2(C(=O)NCC(C)C)CC(=O)N(C3Cc4ccccc4C3)[C@@H]2c2ccc(CO)cc2I)cc1
**A:** -0.766

**Q:** Likewise for CO[C@H]1O[C@H](CO)[C@@H](OC(=O)CCc2ccccc2)[C@H](OC(=O)c2cc3ccccc3[nH]2)[C@H]1OC(=O)c1cc2ccccc2[nH]1 ?
**A:** -0.583

**Q:** Can you check COc1ccc([Si](C)(C)[C@H]2[C@H](CCO)O[C@@]3(C(=O)N(Cc4ccc(N5C(=O)c6ccccc6Oc6ccccc65)cc4)c4ccccc43)[C@@H]2C)cc1 next?
**A:** 2.1

---

- assayText: binders from COS7 lysate, DM2A8 probe, primary screen, torsin A project, cell lysate, small-molecule microarray, fluorescence 635/667 (AID 1065)
- conditionInfo: higher = more signal, COS7 lysate expressing mutant human TOR1A
Entries and their composite z-score values follow.

**Q:** Report composite z-score for O=C(N1CCOCC1)[C@@]1(CCS(=O)(=O)c2ccccc2)N=C(c2ccc(OCCCO)cc2)O[C@H]1c1ccccc1 please.
**A:** 1.06

**Q:** And what about the compound COc1cc2c(cc1O)C(c1ccc(CN3CCCC3)cc1)N(C)CC2 (stereo unspecified) ?
**A:** -0.77

**Q:** Another: O=C1N(CCS(=O)(=O)c2ccccc2)Cc2ccccc2[C@@H]2OC(c3ccc(OCCCO)cc3)=N[C@]12CCS(=O)(=O)c1ccccc1
**A:** 0.675

**Q:** Let us now turn to CC=CC(O)C1C=CC2C(=O)NC(=O)C2N1Nc1ccccn1 (stereo unspecified)
**A:** 0.205

**Q:** Lookup C=C[C@@H](OC)[C@H](OC(=O)Nc1ccc(OC)cc1)c1ccc(OC)c(O)c1
**A:** -0.998

Others:
**Q:** # lookup: composite z-score of CC(C)(C)OC(=O)CC[C@]12N=C(c3ccc(OCCCO)cc3)O[C@H]1c1ccccc1N(Cc1ccccc1)C2=O
**A:** 0.178

**Q:** For C=CCNC(=O)[C@@H]1[C@H]2C(=O)O[C@H](c3ccccc3)[C@H](c3ccccc3)N2[C@H](c2ccc(OCCO)cc2)[C@@]12C(=O)N(C(=O)OCCOC)c1ccc(C#CCCO)cc12 then?
**A:** -0.28

**Q:** What do you get for Cc1ccc(F)cc1S(=O)(=O)N[C@@H]1CCN(Cc2cccc3[nH]ccc23)C1 ?
**A:** 0.871

**Q:** CN1C(=O)C2C=CC(C(O)c3cc(C(F)(F)F)cc(C(F)(F)F)c3)N(NC(=O)OC(C)(C)C)C2C1=O (stereo unspecified) , same question.
**A:** 0.324

**Q:** Do the same for O=C1OCCC=C[C@H]2OC34C=CCN(c5ccc(Cl)cc5)C(=O)[C@H]3N(CCCCCCO)C(=O)[C@@H]4C12 (stereo partly specified) please
**A:** -0.0789

**Q:** Try O=C1O[C@H](c2ccccc2)[C@H](c2ccccc2)N2[C@H]1[C@@H](C(=O)O)[C@]1(C(=O)Nc3ccc(C#CC4(O)CCCCCC4)cc31)[C@H]2c1ccc(O)cc1 next.
**A:** 0.128

**Q:** Follow-up item: Cc1ccc(C(C)CC(O)C2C=CC3C(=O)N(c4ccccc4)C(=O)C3N2Nc2ccc(C#N)cc2)o1 (stereo unspecified)
**A:** -0.28

---

- assayText: PSAC antagonists in infected red cells, primary screen, cell-based, P. falciparum Indochina, OD700, 2 h (AID 1155);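 further: lysis reports solute entry through the parasite surface anion channel PSAC; channel blockers reduce lysis of infected cells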
- conditionInfo: P. falciparum Indochina infected erythrocytes, osmotic lysis OD700, called active from +8 up or from −8 down
Active and inactive are the calls of the source.
Respond using exactly one of the listed classes: label 1 for active, label 0 for inactive

These solved cases illustrate the format of a correct answer.
**Q:** What was the test verdict on C=C(/C(=C/C[C@@H](OC(C)=O)c1ccc(CO)o1)c1cc(C(=O)OC)ccc1OC)C(C)C ?
**A:** label 0

**Q:** Can you check C=C(C)[C@@H]1CC=C(C(O)C2C=CC3C(=O)N(c4ccccc4)C(=O)C3N2Nc2ccc(C#N)cc2)CC1 (stereo partly specified) next?
**A:** label 0

**Q:** Try COCC(=C=CC[C@@H](O)c1cccc(OCCO)c1)CCO next.
**A:** label 0

Further cases:
**Q:** Per the records of this test, what outcome belongs to CN1C(=O)C2C=CC(C(O)c3ccc(I)cc3)N(Nc3ccccc3)C2C1=O (stereo unspecified) ?
**A:** label 0

**Q:** // same read-out, input: CC(C)c1ccc(NN2C(C(O)Cc3ccccc3)C=CC3C(=O)N(c4ccccc4)C(=O)C32)cc1 (stereo unspecified)
**A:** label 0

**Q:** Same thing, different compound: COc1cc(NN2C(C(O)C3CCCCC3)C=CC3C(=O)N(C)C(=O)C32)cc(OC)c1OC (stereo unspecified)
**A:** label 0

**Q:** Also check COCCOC(=O)N1C(=O)[C@@]2(c3ccccc31)[C@H](c1ccc(OCCO)cc1)N1[C@H](c3ccccc3)[C@H](c3ccccc3)OC(=O)[C@H]1[C@@H]2C(=O)N1CCCCCCC1
**A:** label 0

**Q:** And what about the compound COCCOC(=O)N1C(=O)[C@@]2(c3cc(C#CCC(C(=O)OC)C(=O)OC)ccc31)[C@H](C(=O)NC[C@H](O)c1ccccc1)[C@H]1C(=O)O[C@H](c3ccccc3)[C@H](c3ccccc3)N1[C@@H]2c1ccc(OCCO)cc1 ?
**A:** label 0

**Q:** Moving on to [N-]=[N+]=Nc1ccccc1C[C@]1(C(=O)O)N=C(c2ccc(OCCCO)cc2)O[C@H]1c1ccccc1N=[N+]=[N-]
**A:** label 1

---

- studyTarget: Luciferin 4-monooxygenase (Photinus pyralis) (UniProt P08659)
- Sequence (P08659 whole entry, looked up): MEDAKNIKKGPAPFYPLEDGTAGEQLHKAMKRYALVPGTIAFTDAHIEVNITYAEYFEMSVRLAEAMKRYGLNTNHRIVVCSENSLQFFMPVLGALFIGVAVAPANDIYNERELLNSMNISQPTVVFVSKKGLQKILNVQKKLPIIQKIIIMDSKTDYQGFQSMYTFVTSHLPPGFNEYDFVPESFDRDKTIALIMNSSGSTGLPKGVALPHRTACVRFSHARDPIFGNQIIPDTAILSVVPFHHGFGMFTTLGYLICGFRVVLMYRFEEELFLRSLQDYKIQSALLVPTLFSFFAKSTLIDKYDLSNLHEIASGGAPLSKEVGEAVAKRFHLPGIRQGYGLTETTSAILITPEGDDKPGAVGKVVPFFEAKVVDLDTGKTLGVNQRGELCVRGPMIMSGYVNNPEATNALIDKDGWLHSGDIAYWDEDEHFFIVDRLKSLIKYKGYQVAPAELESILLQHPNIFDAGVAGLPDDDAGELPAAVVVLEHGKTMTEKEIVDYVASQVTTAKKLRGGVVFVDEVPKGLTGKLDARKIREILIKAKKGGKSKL
- assayText: firefly luciferase enzyme inhibitors, primary screen, biochemical, luminescence, purified enzyme, 2006 set (AID 1141);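 further: cell-free assay with purified firefly luciferase at 100 ng per well in PBS; test concentration not given here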
- conditionInfo: SteadyGlo luminescence, 30 min, higher = more signal, called active from +8 up or from −8 down
Assign label 1 whenever z-score does not fall below -1; assign label 0 whenever it does.

**Q:** Determine whether this compound has z-score no lower than -1: C=C(CCCC)C(=O)CC[C@@H](OC(=O)c1cccnc1)c1ccc(OCCO)cc1
**A:** label 0

**Q:** Here is the next compound: CCOC(=O)C1=C[C@@H](C(C)(C)C)N(S(=O)(=O)c2ccc(C)cc2)[C@H]1c1ccccc1
**A:** label 1

**Q:** Request: COc1ccc(C(=O)Nc2cccc(CN3C(=O)[C@]4(O[C@H](CCn5cc([C@H](O)c6ccccc6)nn5)[C@@H]([Si](C)(C)c5ccc(OC)cc5)[C@@H]4C)c4ccccc43)c2)cc1
**A:** label 1

**Q:** # iterate: CS(=O)(=O)CCOC(=O)C1=CC(CCCO)=CC(C2CC2)N(Cc2cccc(OC(F)(F)F)c2)C=C1C(=O)OCCS(C)(=O)=O (centres undefined)
**A:** label 0

**Q:** Would you kindly repeat that for NC(=O)[C@@H]1[C@H]2C(=O)O[C@H](c3ccccc3)[C@H](c3ccccc3)N2[C@H](c2ccc(OCCO)cc2)[C@@]12C(=O)Nc1ccc(C#CCCO)cc12 ?
**A:** label 0

**Q:** Now give it for C=C(/C(=C/C[C@H](OC(=O)c1ccncc1)c1cccc(OCCO)c1)c1cnc2ccccc2c1)C(C)C too.
**A:** label 1

New cases:
**Q:** Dear colleague, could you confirm whether NC(=O)NCC#Cc1ccc2c(c1)[C@]1(C(=O)N2)[C@H](C(=O)N2CCN(c3ncccn3)CC2)[C@H]2C(=O)O[C@H](c3ccccc3)[C@H](c3ccccc3)N2[C@@H]1c1ccc(OCCO)cc1 has z-score at or above -1?
**A:** label 1

**Q:** Item: Cc1cccc([C@H]2C[C@H]3C(I)=C[C@@H]2C(=O)[C@]32CO2)c1
**A:** label 1

**Q:** Another compound to look at: COC(=O)[C@@]1(Cc2ccc(OC)cc2)[C@H]2c3cc(C(=O)N4CCCC4)n(Cc4cc(C)n(C)n4)c3C[C@H]2CN1C(=O)c1ccccc1
**A:** label 1

**Q:** Consider next the compound C=C(/C(=C/C[C@@H](OC(C)=O)c1ccc(CO)o1)c1cc(C(=O)OC)ccc1OC)C(C)C in the same way.
**A:** label 0

**Q:** Try this compound next: COCCOC(=O)N1C(=O)[C@@]2(c3cc(C#CCNC(N)=O)ccc31)[C@H](c1ccc(O)cc1)N1[C@H](c3ccccc3)[C@H](c3ccccc3)OC(=O)[C@H]1[C@@H]2C(N)=O
**A:** label 0

**Q:** Input CCOC(=O)C=Cc1ccccc1O
**A:** label 1

**Q:** Entry to check: CC(C)CNC(=O)[C@@]1(C)c2ccccc2C(=O)N(Cc2cc(C(F)(F)F)cc(C(F)(F)F)c2)[C@H]1c1ccc(CO)cc1
**A:** label 1

**Q:** Also COCCOC(=O)N1C(=O)[C@@]2(c3cc(C#CCC(C(=O)OC)C(=O)OC)ccc31)[C@H](c1ccc(OCCO)cc1)N1[C@H](c3ccccc3)[C@H](c3ccccc3)OC(=O)[C@H]1[C@@H]2C(=O)Nc1nc2ccccc2s1 , if possible.
**A:** label 0
